# System: Wolbachia pipientis
# test.name: Anti-Wolbachia Cell-Based Screen
# Assay type: functional
# Set-up: scale not given: in the data most compounds retested in dose-response had high values
# conditions: 5 µM
Hit rate of the full screen: of about 48,000 compounds, about 13,000 (27%) showed an effect of 50% or more. Some of the results follow.
property.label: Percent Effect (%)

- compound: "Cc1cccnc1CN1CCC(c2nnc(Cn3cccn3)n2C)CC1"
  property.label: "Percent Effect"
  val: 7.8
- compound: "CN(C)CCCn1ccnc1C1CCN(c2cccc(C(=O)O)n2)CC1"
  property.label: "Percent Effect"
  val: -0.5716
- compound: "O=C(NC1CCS(=O)(=O)c2ccccc21)c1sccc1C1CC1 (centres undefined)"
  property.label: "Percent Effect"
  val: -7.789
- compound: "Cc1cc(=O)n(CC(=O)NCC2CCCO2)c(-c2cccc(Cl)c2)n1 (centres undefined)"
  property.label: "Percent Effect"
  val: 14.67
